Every entry's value here was drawn from patent US20240279318A1.

target system: AFP158 loaded T2 cells (human;, UniProt P61769 21-119)
Sequence (chain, as listed by the source, chain 2 of 2): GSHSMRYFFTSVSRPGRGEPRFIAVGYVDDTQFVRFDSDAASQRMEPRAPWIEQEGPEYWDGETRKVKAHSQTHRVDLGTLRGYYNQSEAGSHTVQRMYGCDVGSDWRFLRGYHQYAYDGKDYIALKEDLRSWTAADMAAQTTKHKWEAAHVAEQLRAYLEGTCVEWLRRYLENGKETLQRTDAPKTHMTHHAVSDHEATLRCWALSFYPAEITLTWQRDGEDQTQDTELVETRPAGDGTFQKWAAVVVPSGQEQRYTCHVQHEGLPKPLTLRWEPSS
Sequence (P61769 21-119, chain 3 of 2): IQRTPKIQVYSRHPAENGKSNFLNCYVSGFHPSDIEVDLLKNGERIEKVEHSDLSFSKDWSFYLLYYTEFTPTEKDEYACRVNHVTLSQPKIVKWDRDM
test name: flow cytometry
endpoint label: EC50

AS167830 sdAb-mIgG2aFc (Fc fusion) QVKLVESGGGSVQAGGSLRLSCAASRSSEYMNRRFCMGWFRQASGKEREGVAVVYIGGGRTYYADSVKGRFTISQDNAKNTLYLQMNNLKPEDTAMYYCTADVDPYESSWSRDLGYWGQGTQVTVSS = 6.14 nM
AS190259 scFv-mIgG2aFc (Fc fusion) QSVVTQPSAVSVSLEETATITCQGGGYYVNWYQQKPGQAPVLVIYLNTNRPSGIPERFSASKSGGTATLTINGAQAEDEAAYYCQSADSSGNSAVFGGGTHLTVLGGGGSGGGGSGGGGSQVQLVQSGGGLVQPGGSLRLSCAASGFTFSSYAMSWVRQAPGKGLEWVSAINSGGGSTYYADSVKGRFTISRDNAKNTLYLQLNSLKTEDTAMYYCAKAASGYGGSWWGDATLDAWGQGTLVTVSS = 3.76 nM
AS167821 sdAb-mIgG2aFc (Fc fusion) QVRLVESGGGSVQAGGSLRLSCAASGRTYSTYCMGWFRQAPGKEREGVATIYIGSGRTYYVDSVKGRFTISQDNAKNTLYLQMNNLKPEDTAMYYCTADVDPYESSWSRGLGYWGQGTQVTVSS = 3.63 nM
